# test.target: his-tagged rhTLR4/MD2 (Homo sapiens, UniProt O00206+Q9Y6Y9)
# Construct: purchased R&D SYSTEMS
# Sequence (O00206 24-631 limits assumed): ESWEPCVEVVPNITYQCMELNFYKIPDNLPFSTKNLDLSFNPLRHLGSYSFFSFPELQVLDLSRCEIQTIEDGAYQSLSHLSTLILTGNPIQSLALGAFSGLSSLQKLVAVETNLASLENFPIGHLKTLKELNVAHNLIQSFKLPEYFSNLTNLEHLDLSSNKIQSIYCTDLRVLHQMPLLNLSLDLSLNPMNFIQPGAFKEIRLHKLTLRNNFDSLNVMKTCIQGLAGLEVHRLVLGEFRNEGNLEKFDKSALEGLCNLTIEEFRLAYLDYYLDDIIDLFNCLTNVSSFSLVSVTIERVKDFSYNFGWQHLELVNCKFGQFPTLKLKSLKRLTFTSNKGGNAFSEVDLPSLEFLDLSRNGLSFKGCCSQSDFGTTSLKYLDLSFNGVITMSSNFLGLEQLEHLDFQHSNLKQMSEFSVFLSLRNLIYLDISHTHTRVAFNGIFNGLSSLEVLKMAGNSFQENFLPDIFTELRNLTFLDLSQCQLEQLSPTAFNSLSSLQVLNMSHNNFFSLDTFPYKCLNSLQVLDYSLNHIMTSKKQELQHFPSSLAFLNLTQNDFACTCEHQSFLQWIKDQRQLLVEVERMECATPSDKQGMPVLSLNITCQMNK
# Sequence (Q9Y6Y9 17-160 limits assumed): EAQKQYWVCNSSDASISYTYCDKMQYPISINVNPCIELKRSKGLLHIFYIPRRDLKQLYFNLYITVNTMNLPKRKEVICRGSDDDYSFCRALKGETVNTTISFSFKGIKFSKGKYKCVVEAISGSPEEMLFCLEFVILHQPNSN
# method.notes: Immunoprecipitation on TLR4/MD2-coupled beads, eluates analysed by MALDI-TOF mass spectrometry
# Type: binding
# test.conditions: beads with TLR4/MD2, 3 h at 4° C., 1 mM Calcium, elution with 10 mM TRIS/2 mM EDTA
# Protocol: Anti-His antibody (5 μL, 0.5 mg/mL, Invivogen) and his-tagged rhTLR4/MD2 (5 μL, 1 mg/mL, carrier free, R&D SYSTEMS) were mixed and coupled to Protein A/G Agarose ([…], Thermo Scientific). Trypsin digested peptides of S100A9 were added for 3 h at 4° C. in the presence of 1 mM Calcium. After washing of the beads in HBS/1 mM Ca-buffer for three times bound peptidic fragments were eluted by addition of 10 mM TRIS/2 mM EDTA-buffer and analysed by ESI and MALDI-TOF-mass spectrometry. […]
value.kind: binding to TLR4/MD2 (peptide detected in eluate by MALDI-TOF mass spectrometry)

55-71: synthetic peptide, positions 55-71 of human S100A8, complete C-terminal EF hand, FKELDINTDGAVNFQEF | able to bind to TLR4/MD2
63-79: synthetic peptide, amino acid positions 63-79 of S100A9, complete C-terminal EF hand, MEDLDTNADKQLSFEEF | able to bind to TLR4/MD2
